# pest or weed control at 1000 g/ha listing for each entry below
# Test system: Echinochloa crus-galli (ECHCG)
# EXPERIMENTAL DETAILS: Pre-emergence biological efficacy, glasshouse, 1000 g/ha, evaluated after 13 days (100=total damage to plant; 0=no damage to plant)
# Type: in vivo
# DETAILS: Echinochloa crus-galli, 312 h, rate 1,000 g/ha, read-out: Percentage damage caused to weed species, pre-emergence, ECHCG
State the result as a value with its unit after it.

The cases that follow already have their pest or weed control at 1000 g/ha on record.
COMPOUND: COC(=O)c1nc(-c2ccc(Cl)c(F)c2)nc2[nH]cc(C)c12
pest or weed control at 1000 g/ha: 0%
//
COMPOUND: CCOCCOC(=O)c1nc(-c2ccc(Cl)c(OC)c2F)cc2[nH]cc(C)c12
pest or weed control at 1000 g/ha: 20%
//
COMPOUND: COc1c(Cl)ccc(-c2nc(C(=O)O)c3c(C)cn(C(C)c4ccccc4)c3n2)c1F (centres unmarked)
pest or weed control at 1000 g/ha: 0%
//
COMPOUND: COC(=O)c1nc(-c2ccc(Cl)c(F)c2)nc2[nH]c(C)c(C)c12
pest or weed control at 1000 g/ha: 0%
//
COMPOUND: COC(=O)c1nc(-c2ccc(Cl)c(F)c2)cc2[nH]cc(C)c12
pest or weed control at 1000 g/ha: 20%
//
COMPOUND: COC(=O)c1nc(C2CC2)nc2c1cc(C)n2Cc1ccccc1[N+](=O)[O-]
pest or weed control at 1000 g/ha: 0%
//
COMPOUND: COc1c(Cl)ccc(-c2nc(C(=O)OCC3CCCO3)c3c(C)c[nH]c3n2)c1F (centres unmarked)
pest or weed control at 1000 g/ha: 10%

The recorded pest or weed control at 1000 g/ha for COC(=O)c1nc(-c2ccc(Cl)c(OC)c2F)nc2c1cc(C)n2CC1CC1 is 0%

====

Entries annotated with measured pest or weed control at 1000 g/ha
# Tested on: Setaria faberi (SETFA)
# EXPERIMENTAL DETAILS: Pre-emergence biological efficacy, glasshouse, 1000 g/ha, evaluated after 13 days (100=total damage to plant; 0=no damage to plant)
# Type: in vivo
# DETAILS: Setaria faberi, 312 h, rate 1,000 g/ha, read-out: Percentage damage caused to weed species, pre-emergence, SETFA
Numeric only. Scale: %

Solved entries:
MOLECULE: COC(=O)c1nc(C2CC2)nc2c1NC(c1ccccc1)C(c1ccccc1)N2 (stereo not drawn) [Compound 91-44]
pest or weed control at 1000 g/ha [%]: 0
//
MOLECULE: COC(=O)c1nc(C2CC2)nc2[nH]ccc12 [Compound 1-2]
pest or weed control at 1000 g/ha [%]: 0
//
MOLECULE: O=C(O)c1nc(Cl)nc2[nH]ccc12 [Compound 1-121]
pest or weed control at 1000 g/ha [%]: 0
//
MOLECULE: O=C(O)c1nc(C2CC2)nc2c1ccn2Cc1ccccc1[N+](=O)[O-] [Compound 8-1]
pest or weed control at 1000 g/ha [%]: 0
//
MOLECULE: COc1c(Cl)ccc(-c2cc3[nH]cc(C)c3c(C(=O)OCc3ccccc3)n2)c1F [Compound 22-86]
pest or weed control at 1000 g/ha [%]: 0
//
MOLECULE: COc1c(Cl)ccc(-c2nc(C(=O)O)c3c(n2)N(C)CCN3C)c1F [Compound 92-163]
pest or weed control at 1000 g/ha [%]: 0
//
MOLECULE: COc1c(Cl)ccc(-c2cc3[nH]cc(C)c3c(C(=O)OCc3ccco3)n2)c1F [Compound 22-87]
pest or weed control at 1000 g/ha [%]: 10
//
MOLECULE: CCCCCC(C)OC(=O)c1nc(-c2ccc(Cl)c(OC)c2F)nc2[nH]cc(C)c12 (stereo not drawn) [Compound 1-79]
pest or weed control at 1000 g/ha [%]: 0

Please turn your attention to the following entry.
pest or weed control at 1000 g/ha for Cc1cc2c(C(=O)O)nc(-c3ccc(Cl)c(F)c3)nc2n1Cc1ccccc1[N+](=O)[O-] [Compound 8-21] is 20

====

List of pest or weed control at 1000 g/ha values.
# System: Ipomoea hederaceae (IPOHE)
# EXPERIMENTAL DETAILS: Pre-emergence biological efficacy, glasshouse, 1000 g/ha, evaluated after 13 days (100=total damage to plant; 0=no damage to plant)
# Assay type: in vivo
# DETAILS: Ipomoea, 312 h, rate 1,000 g/ha, read-out: Percentage damage caused to weed species, pre-emergence, IPOHE
The reply should contain only the number, in %.

COMPOUND: COc1c(Cl)ccc(-c2nc(C(=O)O)c3c(n2)N(C)CCN3C)c1F
REPORTED: 0
//
COMPOUND: COCCOCCOC(=O)c1nc(-c2ccc(Cl)c(OC)c2F)nc2[nH]cc(C)c12
REPORTED: 10
//
COMPOUND: COC(=O)c1nc(C2CC2)nc2c1ccn2Cc1ccccc1[N+](=O)[O-]
REPORTED: 0
//
COMPOUND: Cc1cc2c(C(=O)O)nc(-c3ccc(Cl)c(F)c3)nc2n1Cc1ccco1
REPORTED: 0

// pest or weed control at 1000 g/ha (Ipomoea hederaceae (IPOHE)) for CCCCOCCOC(=O)c1nc(-c2ccc(Cl)c(OC)c2F)cc2[nH]cc(C)c12 = 80

Field pest or weed control at 1000 g/ha (system: Ipomoea hederaceae (IPOHE)) for entry COC(=O)c1nc(-c2ccc(Cl)c(OC)c2F)nc2scc(C)c12 = 0

Test item COc1c(Cl)ccc(-c2cc3[nH]cc(C)c3c(C(=O)OC(C)C)n2)c1F ; Ipomoea hederaceae (IPOHE); reported pest or weed control at 1000 g/ha was 0

Item COC(=O)c1nc(-c2ccc(Cl)c(OC)c2F)nc2c1N(Cc1ccccc1)C(C)N2Cc1ccccc1 (centres unmarked) was tested on Ipomoea hederaceae (IPOHE); the reported pest or weed control at 1000 g/ha is 0

Field pest or weed control at 1000 g/ha (system: Ipomoea hederaceae (IPOHE)) for entry COC(=O)c1nc(-c2ccc(Cl)c(OC)c2F)nc2c1cc(C)n2Cc1ccccc1 = 0

Summary: COC(=O)c1nc(-c2ccc(Cl)c(N(C)C)c2F)nc2[nH]c(C)cc12 , Ipomoea hederaceae (IPOHE), pest or weed control at 1000 g/ha = 40

The reported pest or weed control at 1000 g/ha value, Ipomoea hederaceae (IPOHE), for COC(=O)c1nc(-c2ccc(Cl)c(F)c2)nc2[nH]cc(C)c12 reads 0

====

# Tested on: Ipomoea hederaceae (IPOHE)
# EXPERIMENTAL DETAILS: Pre-emergence biological efficacy, glasshouse, 1000 g/ha, evaluated after 13 days (100=total damage to plant; 0=no damage to plant)
# Type: in vivo
# DETAILS: Ipomoea, 312 h, rate 1,000 g/ha, read-out: Percentage damage caused to weed species, pre-emergence, IPOHE
REPORTED ENDPOINT: pest or weed control at 1000 g/ha (%)
Give a bare numeral; the unit % is implied.

Summary: COC(=O)c1nc(-c2ccc(Cl)c(OC)c2F)cc2c1c(C)cn2C(=O)C(C)(C)C , Ipomoea hederaceae (IPOHE), pest or weed control at 1000 g/ha = 0

Reported Ipomoea hederaceae (IPOHE) pest or weed control at 1000 g/ha for item COC(=O)c1nc(-c2ccc(Cl)c(OC)c2F)nc2[nH]c(C)cc12 was 90

Tested on Ipomoea hederaceae (IPOHE): COc1c(Cl)ccc(-c2cc3[nH]cc(C)c3c(C(=O)OCc3ccco3)n2)c1F . Observed pest or weed control at 1000 g/ha: 80

====

# Test system: Setaria faberi (SETFA)
# EXPERIMENTAL DETAILS: Pre-emergence biological efficacy, glasshouse, 1000 g/ha, evaluated after 13 days (100=total damage to plant; 0=no damage to plant)
# Format: in vivo
# DETAILS: Setaria faberi, 312 h, rate 1,000 g/ha, read-out: Percentage damage caused to weed species, pre-emergence, SETFA
REPORTED ENDPOINT: pest or weed control at 1000 g/ha (%)
Numbers only; they are read as %.

Examples with answers:
MOLECULE: COC(=O)c1nc(C2CC2)nc2[nH]c(C)cc12
pest or weed control at 1000 g/ha, %: 0
//
MOLECULE: CCOCCOC(=O)c1nc(-c2ccc(Cl)c(OC)c2F)cc2[nH]cc(C)c12
pest or weed control at 1000 g/ha, %: 0
//
MOLECULE: COc1c(Cl)ccc(-c2cc3[nH]cc(C)c3c(C(=O)OCC3CCCO3)n2)c1F (stereo not drawn)
pest or weed control at 1000 g/ha, %: 10
//
MOLECULE: COc1c(Cl)ccc(-c2nc(C(=O)O)c3c(C)cn(Cc4ccccc4)c3n2)c1F
pest or weed control at 1000 g/ha, %: 0

Noted pest or weed control at 1000 g/ha for COC(=O)c1nc(-c2ccc(Cl)c(F)c2)nc2c1ccn2Cc1ccccc1 , tested on Setaria faberi (SETFA): 0

Summary: COC(=O)c1nc(C2CC2)nc2c1ccn2Cc1ccccc1[N+](=O)[O-] , Setaria faberi (SETFA), pest or weed control at 1000 g/ha = 0

Reported Setaria faberi (SETFA) pest or weed control at 1000 g/ha for item COC(=O)c1nc(-c2ccc(Cl)c(F)c2)cc2[nH]cc(C)c12 was 0

Recorded pest or weed control at 1000 g/ha for COC(=O)c1nc(-c2ccc(Cl)c(OC)c2F)nc2ncccc12 on Setaria faberi (SETFA) was 0

COC(=O)c1nc(C2CC2)nc2c1Nc1ccccc1N2 on Setaria faberi (SETFA) gives pest or weed control at 1000 g/ha = 0

Hello, the source for this data is patent US20120202690A1, in case you need it.
